Origin of values: patent US20220153746A1

Assay: PK Phase (Group 2): plasma concentrations and pharmacokinetics of Compound 18 and its metabolite Compound 4 after once daily ocular instillation of Compound 18 nanosuspension for 7 days
Type: in vivo, New Zealand white rabbits
Conditions: male, New Zealand white, rabbit, plasma, other: ocular instillation (eye drop), 0.821 mg/kg/day, 4 h; animal 207666; read-out: Day 1 Compound 18 Plasma Concentration
READOUT LABEL: concentration at 4 h

[Q] What value of measured concentration at 4 h is listed for `CCCc1nn(C)c2c(=O)[nH]c(-c3cc(S(=O)(=O)N4CC(CCCO[N+](=O)[O-])C4)ccc3OCC)nc12` ?
[A] 0.0655 ng/mL
